molecular target: Tyrosine-protein phosphatase non-receptor type 2 (Homo sapiens); experiment: Inhibition of human recombinant TCPTP using pNPP as substrate assessed as reduction in p-nitrophenol release incubated for 30 mins by absorbance based analysis
Sequence (P17706 whole entry): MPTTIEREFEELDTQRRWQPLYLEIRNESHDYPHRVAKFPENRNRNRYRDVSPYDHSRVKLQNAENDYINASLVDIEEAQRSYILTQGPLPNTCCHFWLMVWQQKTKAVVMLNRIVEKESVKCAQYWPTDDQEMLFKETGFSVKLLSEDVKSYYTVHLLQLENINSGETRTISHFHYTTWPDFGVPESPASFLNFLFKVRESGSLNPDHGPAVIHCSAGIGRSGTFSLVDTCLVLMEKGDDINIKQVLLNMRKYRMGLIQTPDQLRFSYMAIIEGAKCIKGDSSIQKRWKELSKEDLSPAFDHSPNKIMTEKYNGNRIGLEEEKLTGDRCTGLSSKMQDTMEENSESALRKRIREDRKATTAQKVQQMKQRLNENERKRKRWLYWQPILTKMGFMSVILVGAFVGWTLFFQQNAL
pIC50: −log10 of the molar value.
readoutName: pIC50

Previously resolved entries follow.
sampleSmiles	targetOfAssay	pIC50
C=C1C(=O)O[C@@H]2/C=C(\C)C[C@H](O)/C=C(\C)C[C@@H](OC(=O)/C(=C\C)CO)[C@@H]12	Tyrosine-protein phosphatase non-receptor type 2 (Homo sapiens)	< 4.55
C=C1C(=O)O[C@@H]2/C=C(\C)CC/C=C(\C)C[C@@H](OC(=O)/C(=C\C)CO)[C@@H]12	Tyrosine-protein phosphatase non-receptor type 2 (Homo sapiens)	4.60
C=C1C(=O)O[C@@H]2/C=C(\C)CC/C=C(\CO)C[C@@H](OC(=O)/C(C)=C/C)[C@@H]12	Tyrosine-protein phosphatase non-receptor type 2 (Homo sapiens)	< 4.60
C=C1C(=O)O[C@@H]2/C=C(\C)[C@@H](O)C/C=C(\C)C[C@@H](OC(=O)/C(=C\C)COC(C)=O)[C@@H]12	Tyrosine-protein phosphatase non-receptor type 2 (Homo sapiens)	< 4.60
C=C1C(=O)O[C@@H]2/C=C(\C)CC/C=C(\C)C[C@@H](OC(=O)/C(=C/C)CO)[C@@H]12	Tyrosine-protein phosphatase non-receptor type 2 (Homo sapiens)	< 4.54
C=C1C(=O)O[C@@H]2/C=C(\C)CC/C=C(\C)C[C@@H](OC(=O)/C(=C\COC(C)=O)CO)[C@@H]12	Tyrosine-protein phosphatase non-receptor type 2 (Homo sapiens)	< 4.54
C=C1C(=O)O[C@@H]2/C=C(\C)C[C@H](O)/C=C(\C)C[C@@H](OC(=O)/C(=C\C)COC(C)=O)[C@@H]12	Tyrosine-protein phosphatase non-receptor type 2 (Homo sapiens)	< 4.60
C=C1C(=O)O[C@@H]2/C=C(\C)CC/C=C(\C)C[C@@H](OC(=O)/C(=C/C)COC(C)=O)[C@@H]12	Tyrosine-protein phosphatase non-receptor type 2 (Homo sapiens)	< 4.60

Could you now look at the following molecule, please?
Exercise: Entry C=C1C(=O)O[C@@H]2/C=C(\C)CC/C=C(\C)C[C@@H](OC(=O)/C(=C/CO)CO)[C@@H]12 has what pIC50?
Key: < 4.55
